Hi there, I'd appreciate the recorded max. MFI for every entry that follows.
- target: full-length H1 A/California/07/2009 HA expressed on 293T cells (influenza A virus A/California/07/2009 (H1N1))
- protocol description: flow cytometry, HA-expressing 293T

Exam item: Entry S48 (antibody, V domains shown) VH: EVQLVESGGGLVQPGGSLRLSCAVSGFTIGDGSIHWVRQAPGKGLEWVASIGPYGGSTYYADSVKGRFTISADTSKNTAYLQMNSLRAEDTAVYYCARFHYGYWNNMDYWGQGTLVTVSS VL: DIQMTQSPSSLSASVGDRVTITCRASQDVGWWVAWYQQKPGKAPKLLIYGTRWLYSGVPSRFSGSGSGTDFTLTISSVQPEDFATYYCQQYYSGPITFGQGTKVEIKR has what max. MFI?
Marked response: 6240 MFI

Exam item: Entry S51 (antibody, V domains shown) VH: EVQLVESGGGLVQPGGSLRLSCAASGFTIDDWGIHWVRQAPGKGLEWVAWIWPYGGFTSYADSVKGRFTISADTSKNTAYLQMNSLRAEDTAVYYCARFGFVDWNLMDYWGQGTLVTVSS VL: DIQMTQSPSSLSASVGDRVTITCRASQDVWGYVAWYQQKPGKAPKLLISYTTYLYSGVPSRFSGSGSGTDFTLTISSLQPEDFATYYCQQYYNSPVTFGQGTKVEIKR has what max. MFI?
Marked response: 6290 MFI
